Source listed as patent US20150352108A1.

Entries and their measured IC50 follow.
measured_target: IKKε (Homo sapiens)
Construct: His-tag; made in house; host or cells: Sf9 insect cells
method_notes: In-vitro IKKε kinase assay ([γ33]ATP filter-plate)
Assay type: biochemical
condition_description: text bins; read-out: IC50 for inhibition of the kinase activity of IKKε

- compound: "COC1CN(c2cc(Nc3nccc(-c4ccc(OC5CCOCC5)c(C#N)c4)n3)ccc2C)C1"
  measured_target: "IKKε (Homo sapiens)"
  readout_label: "IC50"
  assay_value: "< 5 nM"
- compound: "COc1ccc(-c2ccnc(Nc3ccc(N4CCS(=O)(=O)CC4)cc3)n2)cc1C#N"
  measured_target: "IKKε (Homo sapiens)"
  readout_label: "IC50"
  assay_value: "5 to 50 nM"
- compound: "CNS(=O)(=O)Cc1ccc(Nc2nccc(-c3ccc(OC4CCOCC4)c(C#N)c3)n2)cc1"
  measured_target: "IKKε (Homo sapiens)"
  readout_label: "IC50"
  assay_value: "< 5 nM"
- compound: "CC(C)NC(=O)Nc1ccc(-c2ccnc(Nc3ccc(N4CCOCC4)cc3)n2)cc1C#N"
  measured_target: "IKKε (Homo sapiens)"
  readout_label: "IC50"
  assay_value: "5 to 50 nM"
- compound: "COc1cc(Nc2nccc(-c3ccc(OC(C)C)c(C#N)c3)n2)cc(OC)c1OC"
  measured_target: "IKKε (Homo sapiens)"
  readout_label: "IC50"
  assay_value: "< 5 nM"
- compound: "N#Cc1cc(-c2nc(Nc3ccc(N4CCOCC4)cc3)ncc2F)ccc1OC1CCOCC1"
  measured_target: "IKKε (Homo sapiens)"
  readout_label: "IC50"
  assay_value: "< 5 nM"
- compound: "COc1cc(Nc2nccc(-c3ccc(OC4CCN(C(=O)CO)C4)c(C#N)c3)n2)ccc1OCCOCCN (stereo not shown)"
  measured_target: "IKKε (Homo sapiens)"
  readout_label: "IC50"
  assay_value: "5 to 50 nM"
- compound: "COCCOCC(=O)Nc1cc(Nc2nccc(-c3ccc(OC)c(C#N)c3)n2)cc(OC)c1"
  measured_target: "IKKε (Homo sapiens)"
  readout_label: "IC50"
  assay_value: "5 to 50 nM"

Item `COc1ccc(-c2ccnc(Nc3ccc(OC)c(OC)c3)n2)cc1C#N` has what recorded IC50? 5 to 50 nM

Requested read-out: IC50. Entry: `COc1cc(Nc2nccc(-c3cccc(C#N)c3)n2)cc(OC)c1` 50 to 500 nM

Given N#Cc1cc(-c2ccnc(Nc3cccc(NC(=O)N4CCC(O)C4)c3)n2)ccc1OC1CCOCC1 (stereo not shown) , state its recorded IC50. < 5 nM

Dear colleague, I am looking for the recorded IC50 of the following compound: COc1cc(Nc2nccc(-c3ccc(OC4CCOCC4)c(C#N)c3)n2)ccc1S(=O)(=O)N1CCC(N(C)C)C1 (stereo not shown) < 5 nM

I'd like to know its IC50. The compound in question is `COc1cc(-c2ccnc(Nc3ccc(N4CCOCC4)cc3)n2)cc(C#N)c1OC1CCN(C(=O)[C@@H](C)O)CC1` < 5 nM

Bench note: what IC50 did `CCOC1CN(C(=O)c2ccc(Nc3nccc(-c4ccc(OC5CCOCC5)c(C#N)c4)n3)cc2OC)C1` show? < 5 nM

// returns reported IC50 for input `CS(=O)(=O)N1CCN(c2ccc(Nc3nccc(-c4ccc(OC5CCOCC5)c(C#N)c4)n3)cc2)CC1` < 5 nM

Given the entry `CN1CCN(S(=O)(=O)c2ccc(Nc3nccc(-c4ccc(OC5CCOCC5)c(C#N)c4)n3)cc2)CC1` , report its measured IC50. 5 to 50 nM

Field request: IC50 | item: `N#Cc1cc(-c2ccnc(Nc3ccc(N4CCOCC4)cc3)n2)ccc1OC1CCN(C(=O)CN)CC1` 5 to 50 nM

Field request: IC50 | item: `COc1ccc(-c2ccnc(Nc3ccc(N4CCN(C)CC4)cc3)n2)cc1C#N` 5 to 50 nM

Which value of IC50 has been reported for `CC(C)C(=O)Nc1ccc(-c2ccnc(Nc3ccc(CC(=O)NCCCN4CCOCC4)cc3)n2)cc1C#N` in the records? 5 to 50 nM

May I ask what IC50 has been recorded for `CN(C)C(=O)CCNc1ccc(Nc2nccc(-c3ccc(OC4CCOCC4)c(C#N)c3)n2)cc1` ? 5 to 50 nM

* * *

measured_target: IKKε (Homo sapiens, UniProt Q14164)
Construct: His-tag; made in house; host or cells: Sf9 insect cells
Sequence (Q14164 whole entry): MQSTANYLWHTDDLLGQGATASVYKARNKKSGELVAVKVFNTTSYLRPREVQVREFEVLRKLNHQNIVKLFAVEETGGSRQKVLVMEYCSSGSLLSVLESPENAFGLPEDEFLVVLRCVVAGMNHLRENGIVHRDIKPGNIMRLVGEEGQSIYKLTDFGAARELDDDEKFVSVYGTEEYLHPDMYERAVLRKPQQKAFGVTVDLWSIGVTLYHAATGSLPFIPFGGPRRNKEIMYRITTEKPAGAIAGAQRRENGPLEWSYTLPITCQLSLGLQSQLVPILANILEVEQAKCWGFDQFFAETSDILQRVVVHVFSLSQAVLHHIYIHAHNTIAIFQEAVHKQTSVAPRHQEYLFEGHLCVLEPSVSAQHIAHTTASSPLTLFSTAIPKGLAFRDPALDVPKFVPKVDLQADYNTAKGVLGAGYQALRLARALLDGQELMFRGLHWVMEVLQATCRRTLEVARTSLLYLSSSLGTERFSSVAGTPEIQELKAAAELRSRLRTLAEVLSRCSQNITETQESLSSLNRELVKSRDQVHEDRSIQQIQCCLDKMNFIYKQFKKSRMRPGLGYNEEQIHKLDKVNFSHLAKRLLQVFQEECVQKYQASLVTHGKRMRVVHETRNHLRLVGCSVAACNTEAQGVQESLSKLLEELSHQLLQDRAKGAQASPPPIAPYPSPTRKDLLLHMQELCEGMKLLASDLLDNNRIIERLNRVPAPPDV
method_notes: In-vitro IKKε kinase assay ([γ33]ATP filter-plate)
Format: biochemical
condition_description: text bins; read-out: IC50 for inhibition of the kinase activity of IKKε
pIC50: −log10 of the molar value.
readout_label: pIC50

Worked cases, answers included:
- compound: "N#Cc1cc(-c2ccnc(Nc3cccc(N4CCOCC4)c3)n2)ccc1OC1CCOCC1"
  assay_value: "> 8.30"
- compound: "CCN(CC)CCOc1cc(Nc2nccc(-c3ccc(OC4CCOCC4)c(C#N)c3)n2)ccc1C"
  assay_value: "> 8.30"
- compound: "N#Cc1cccc(-c2ccnc(Nc3cccc(NC(=O)NC4CCCC4)c3)n2)c1"
  assay_value: "7.30 to 8.30"
- compound: "N#Cc1cc(-c2ccnc(Nc3ccc(F)c(F)c3)n2)ccc1O[C@@H]1CCN(C(=O)CO)C1"
  assay_value: "7.30 to 8.30"
- compound: "CC(C)N1CCN(CCOc2cc(Nc3nccc(-c4ccc(OC5CCOCC5)c(C#N)c4)n3)ccc2F)CC1"
  assay_value: "> 8.30"
- compound: "CC(C)CC(=O)Nc1ccc(-c2ccnc(Nc3ccc(N4CCOCC4)cc3)n2)cc1C#N"
  assay_value: "7.30 to 8.30"
- compound: "COc1cc(Nc2nccc(-c3ccc(OC4CCOCC4)c(C#N)c3)n2)ccc1OCCCS(=O)(=O)N1CCOCC1"
  assay_value: "> 8.30"
- compound: "CC(C)C(=O)Nc1ccc(-c2ccnc(Nc3ccc(CN4CCN(CCO)CC4)cc3)n2)cc1C#N"
  assay_value: "7.30 to 8.30"
- compound: "COc1cc(Nc2nccc(-c3ccc(OC4CCOCC4)c(C#N)c3)n2)ccc1S(=O)(=O)NCCCn1ccnc1"
  assay_value: "> 8.30"
- compound: "N#Cc1cc(-c2ccnc(Nc3ccc(CN4CCN(CCO)CC4)cc3)n2)ccc1OC1CCOCC1"
  assay_value: "> 8.30"

So what's the measured pIC50 for this one? C[C@@H](O)C(=O)N1CCC(Oc2ccc(-c3ccnc(Nc4ccc(N5CCOCC5)cc4)n3)cc2C#N)C1 (stereo partly shown) 6.30 to 7.30

Entry COC1CN(C(C)c2ccc(Nc3nccc(-c4ccc(OC5CCOCC5)c(C#N)c4)n3)cc2)C1 (stereo not shown) : reported pIC50 = ? > 8.30

Field request: pIC50 | item: `N#Cc1cc(-c2ccnc(Nc3ccc(CN4CC(O)C4)cc3)n2)ccc1OC1CCOCC1` > 8.30

Which pIC50 is listed for `COc1cc(Nc2nccc(-c3ccc(NC(=O)C(C)C)c(C#N)c3)n2)ccc1OCCCN1CCOCC1` ? 7.30 to 8.30

Return reported pIC50; argument: `CC(=O)N1CCN(C(=O)Nc2ccc(Nc3nccc(-c4ccc(OC5CCOCC5)c(C#N)c4)n3)cc2)CC1` 7.30 to 8.30

Entry `CN(C)CC(=O)Nc1ccc(Nc2nccc(-c3cccc(C#N)c3)n2)cc1` : reported pIC50 = ? 6.30 to 7.30

* * *

measured_target: TBK1 (Homo sapiens, UniProt Q9UHD2)
Construct: His-tag; made in house; host or cells: Sf9 insect cells
Sequence (Q9UHD2 1-729): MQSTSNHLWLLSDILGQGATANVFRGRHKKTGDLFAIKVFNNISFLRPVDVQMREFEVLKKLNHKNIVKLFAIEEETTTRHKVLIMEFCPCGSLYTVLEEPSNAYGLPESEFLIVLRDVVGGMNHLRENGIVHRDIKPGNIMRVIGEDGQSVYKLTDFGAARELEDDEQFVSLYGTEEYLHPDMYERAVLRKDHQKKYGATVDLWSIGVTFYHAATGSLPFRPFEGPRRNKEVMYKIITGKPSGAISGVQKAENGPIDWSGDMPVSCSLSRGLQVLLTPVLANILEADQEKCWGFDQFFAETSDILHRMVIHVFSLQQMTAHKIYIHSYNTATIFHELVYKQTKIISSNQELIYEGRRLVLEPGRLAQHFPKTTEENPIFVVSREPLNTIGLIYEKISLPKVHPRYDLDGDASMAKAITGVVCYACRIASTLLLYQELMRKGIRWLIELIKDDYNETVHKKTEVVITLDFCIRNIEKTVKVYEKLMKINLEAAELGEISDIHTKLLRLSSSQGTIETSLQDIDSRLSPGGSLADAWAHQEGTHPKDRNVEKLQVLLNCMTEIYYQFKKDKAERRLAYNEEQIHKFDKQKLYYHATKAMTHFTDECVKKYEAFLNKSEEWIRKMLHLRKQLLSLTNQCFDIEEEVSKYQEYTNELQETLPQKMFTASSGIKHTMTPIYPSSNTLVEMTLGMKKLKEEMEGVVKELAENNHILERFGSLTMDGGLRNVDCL
method_notes: In-vitro TBK1 kinase assay ([γ33]ATP filter-plate)
Assay type: biochemical
condition_description: text bins; read-out: IC50 for inhibition of the kinase activity of TBK1
pIC50: −log10 of the molar value.
readout_label: pIC50

Use these answered entries as a reference point.
- compound: "COc1cc(Nc2nccc(-c3ccc(OC4CCOCC4)c(C#N)c3)n2)ccc1O [Example 262]"
  measured_target: "TBK1 (Homo sapiens, UniProt Q9UHD2)"
  pIC50: "> 8.00"
- compound: "CC(C)C(=O)Nc1ccc(-c2ccnc(Nc3ccc(CC(=O)N4CCN(C(C)C)CC4)cc3)n2)cc1C#N [compound 418]"
  measured_target: "TBK1 (Homo sapiens, UniProt Q9UHD2)"
  pIC50: "> 8.00"

Using the record for COc1ccc(-c2ccnc(Nc3ccc(S(=O)(=O)NCCO)c(OC)c3)n2)cc1C#N [Example 281] , report its pIC50. 7.00 to 8.00

Would you mind telling me what pIC50 value was observed for CC(C)C(=O)Nc1ccc(-c2ccnc(Nc3ccc(CN4CCOCC4)cc3)n2)cc1C#N [compound 428] ? 7.00 to 8.00
